- Organism: Rattus norvegicus
- Experimental Protocol: DrugMatrix - Regimen: Daily Repeat
- Type: toxicity, organism-based, Sprague-Dawley
- Design: regimen Daily Repeat, gender Male, age 6-8 weeks
- Measurement Context: in vivo, po, 0 mg/kg, 120 h, tissue Blood, route oral GAVAGE, dose level Control, time 5 day, vehicle .5 % CMC
Readout: MEAN CORPUSCULAR HEMOGLOBIN CONCENTRATION (G/DL)
The figure you give is taken to be in G/DL; do not add the unit.

# count of solved cases: 3
>>> recorded_result("CN1C(=O)COc2c(C(=O)NC3CN4CCC3CC4)cc(Cl)cc21 (stereo unspecified) [AZASETRON]")
39.22
>>> recorded_result("CC[C@@H](CO)NCCN[C@@H](CC)CO [ETHAMBUTOL]")
40.32
>>> recorded_result("C[C@]1(Cn2ccnn2)[C@H](C(=O)O)N2C(=O)C[C@H]2S1(=O)=O [TAZOBACTAM]")
37.47

Look up MEAN CORPUSCULAR HEMOGLOBIN CONCENTRATION for this compound: CNC(=C[N+](=O)[O-])NCCSCc1ccc(CN(C)C)o1 [RANITIDINE]
40.43

Look up MEAN CORPUSCULAR HEMOGLOBIN CONCENTRATION for this compound: OC(CCN1CCCCC1)(c1ccccc1)C1CCCCC1 (stereo unspecified) [TRIHEXYPHENIDYL]
39.55

Look up MEAN CORPUSCULAR HEMOGLOBIN CONCENTRATION for this compound: O=[N+]([O-])c1ccccc1 [NITROBENZENE]
31.25

Look up MEAN CORPUSCULAR HEMOGLOBIN CONCENTRATION for this compound: Cc1onc(-c2ccccc2)c1-c1ccc(S(N)(=O)=O)cc1 [VALDECOXIB]
31.02

Look up MEAN CORPUSCULAR HEMOGLOBIN CONCENTRATION for this compound: Clc1ccc2c(c1)C(N1CCNCC1)=Nc1ccccc1O2 [AMOXAPINE]
40.2

Look up MEAN CORPUSCULAR HEMOGLOBIN CONCENTRATION for this compound: N=C(N)NC(=O)c1nc(Cl)c(N)nc1N [AMILORIDE]
40.32

Look up MEAN CORPUSCULAR HEMOGLOBIN CONCENTRATION for this compound: CC(C)[C@H]1CC[C@H](C(=O)N[C@H](Cc2ccccc2)C(=O)O)CC1 [NATEGLINIDE]
39.63

Look up MEAN CORPUSCULAR HEMOGLOBIN CONCENTRATION for this compound: CO[C@H]1/C=C/O[C@@]2(C)Oc3c(C)c(O)c4c(c3C2=O)C2=NC3(CCN(CC(C)C)CC3)NC2=C(NC(=O)/C(C)=C\C=C\[C@H](C)[C@H](O)[C@@H](C)[C@@H](O)[C@@H](C)[C@H](OC(C)=O)[C@@H]1C)C4=O [RIFABUTIN]
40.43

----------
- Species: Rattus norvegicus
- Experimental Protocol: DrugMatrix - Regimen: Daily Repeat
- Assay type: toxicity, organism-based, Sprague-Dawley
- Parameters: regimen Daily Repeat, gender Male, age 6-8 weeks
- Measurement Context: in vivo, sc, 0.5 mg/kg, 72 h, tissue Blood, route mini-PUMP - SUBCUTANEOUS, dose level High, time 3 day, vehicle 100 % SALINE
Readout: ABSOLUTE MONOCYTE (cells/µL)
The figure you give is taken to be in cells/µL; do not add the unit.

Look up ABSOLUTE MONOCYTE for this molecule: CC[C@H](C)[C@H](NC(=O)[C@H](Cc1ccc(O)cc1)NC(=O)[C@@H](NC(=O)[C@H](CCCNC(=N)N)NC(=O)[C@@H](N)CC(=O)O)C(C)C)C(=O)N[C@@H](Cc1cnc[nH]1)C(=O)N1CCC[C@H]1C(=O)N[C@@H](Cc1ccccc1)C(=O)O [ANGIOTENSIN II]
510

----------
- Species on record: Rattus norvegicus
- Experimental Protocol: DrugMatrix - Regimen: Daily Repeat
- Type: toxicity, organism-based, Sprague-Dawley
- Parameters: regimen Daily Repeat, gender Male, age 6-8 weeks
- Measurement Context: in vivo, po, 10 mg/kg, 120 h, tissue Plasma, route oral GAVAGE, dose level Low, time 5 day, […]
Attribute: PHOSPHORUS
The figure you give is taken to be in mg/dL; do not add the unit.

# count of solved cases: 3
>>> recorded_result("COCCOC(=O)C1=C(C)NC(C)=C(C(=O)OC(C)C)C1c1cccc([N+](=O)[O-])c1 (centres undefined)")
10.4
>>> recorded_result("COc1ccc2cc([C@H](C)C(=O)O)ccc2c1")
14.07
>>> recorded_result("CCOC(=O)C1=C(C)NC(C)=C(C(=O)OC)C1c1cccc([N+](=O)[O-])c1 (centres undefined)")
10.6

Pending compound:
Look up PHOSPHORUS for this compound: CC(C)CC(N(C)C)C1(c2ccc(Cl)cc2)CCC1 (centres undefined)
10.8

----------
- Species on record: Rattus norvegicus
- Experimental Protocol: DrugMatrix - Regimen: Daily Repeat
- Format: toxicity, organism-based, Sprague-Dawley
- Set-up: regimen Daily Repeat, gender Male, age 6-8 weeks
- Measurement Context: in vivo, iv, 0 mg/kg, 120 h, tissue Plasma, dose level Control, time 5 day, vehicle 100 % SALINE
Attribute: CREATININE
The figure you give is taken to be in mg/dL; do not add the unit.

>>> recorded_result("CC[C@]1(O)C[C@@H]2CN(CCc3c([nH]c4ccccc34)[C@@](C(=O)OC)(c3cc4c(cc3OC)N(C)[C@H]3[C@@](O)(C(=O)OC)[C@H](OC(C)=O)[C@]5(CC)C=CCN6CC[C@]43[C@@H]65)C2)C1")
0.2
>>> recorded_result("COc1cccc2c1C(=O)c1c(O)c3c(c(O)c1C2=O)C[C@@](O)(C(=O)CO)C[C@@H]3O[C@H]1C[C@H](N)[C@H](O)[C@H](C)O1")
0.21
>>> recorded_result("CCC1=C[C@@H]2CN(C1)Cc1c([nH]c3ccccc13)[C@@](C(=O)OC)(c1cc3c(cc1OC)N(C)[C@H]1[C@@](O)(C(=O)OC)[C@H](OC(C)=O)[C@]4(CC)C=CCN5CC[C@]31[C@@H]54)C2")
0.18
>>> recorded_result("CCc1c2c(nc3ccc(OC(=O)N4CCC(N5CCCCC5)CC4)cc13)-c1cc3c(c(=O)n1C2)COC(=O)[C@]3(O)CC")
0.2

Pending molecule:
Look up CREATININE for this molecule: COc1cccc2c1C(=O)c1c(O)c3c(c(O)c1C2=O)C[C@@](O)(C(=O)CO)C[C@@H]3O[C@H]1C[C@H](N)[C@@H](O)[C@H](C)O1 [EPIRUBICIN]
0.2

----------
Attribute: BLOOD UREA NITROGEN
- Species: Rattus norvegicus
- Experimental Protocol: DrugMatrix - Regimen: Daily Repeat
- Assay type: toxicity, organism-based, Sprague-Dawley
- Set-up: regimen Daily Repeat, gender Male, age 6-8 weeks
- Measurement Context: in vivo, po, 1500 mg/kg, 120 h, tissue Plasma, route oral GAVAGE, dose level High, time 5 day, vehicle .5 % CMC
The figure you give is taken to be in mg/dL; do not add the unit.

>>> recorded_result("NC(=O)c1cnccn1 [PYRAZINAMIDE]")
16.67
>>> recorded_result("O=C(N[C@H](CO)[C@H](O)c1ccc([N+](=O)[O-])cc1)C(Cl)Cl")
22.33
>>> recorded_result("Cc1cc(=O)n(-c2ccccc2)n1C [ANTIPYRINE]")
16.33
>>> recorded_result("CO[C@H]1/C=C/O[C@@]2(C)Oc3c(C)c(O)c4c(c3C2=O)C2=NC3(CCN(CC(C)C)CC3)NC2=C(NC(=O)/C(C)=C\\C=C\\[C@H](C)[C@H](O)[C@@H](C)[C@@H](O)[C@@H](C)[C@H](OC(C)=O)[C@@H]1C)C4=O")
19
>>> recorded_result("CNC(=C[N+](=O)[O-])NCCSCc1ccc(CN(C)C)o1")
15.67
>>> recorded_result("Cc1ccc(S(=O)(=O)NC(=O)NN2CC3CCCC3C2)cc1 (configuration not stated) [GLICLAZIDE]")
21.33

Pending compound:
Look up BLOOD UREA NITROGEN for this compound: C[C@]1(Cn2ccnn2)[C@H](C(=O)O)N2C(=O)C[C@H]2S1(=O)=O
18.33

----------
- Organism: Rattus norvegicus
- Experimental Protocol: DrugMatrix - Regimen: Daily Repeat
- Type: toxicity, organism-based, Sprague-Dawley
- Parameters: regimen Daily Repeat, gender Male, age 6-8 weeks
- Measurement Context: in vivo, po, 1500 mg/kg, 72 h, tissue Plasma, route oral GAVAGE, dose level High, time 3 day, vehicle .5 % CMC
Readout: CHOLESTEROL (mg/dL)
The figure you give is taken to be in mg/dL; do not add the unit.

>>> recorded_result("O=C(N[C@H](CO)[C@H](O)c1ccc([N+](=O)[O-])cc1)C(Cl)Cl")
63

Pending compound:
Look up CHOLESTEROL for this compound: CO[C@H]1/C=C/O[C@@]2(C)Oc3c(C)c(O)c4c(c3C2=O)C2=NC3(CCN(CC(C)C)CC3)NC2=C(NC(=O)/C(C)=C\C=C\[C@H](C)[C@H](O)[C@@H](C)[C@@H](O)[C@@H](C)[C@H](OC(C)=O)[C@@H]1C)C4=O
148.67

Origin of measurements: ChEMBL document CHEMBL3885881
